Test system: pigweed (Amaranthus retroflexus)
Assay: Test B postemergence
Assay type: in vivo
Conditions: Rate 125 g/ha, scale 0 (no effect) to 100 (complete control), 13 to 15 days
Below, each entry is listed with its recorded Plant response rating, Pigweed.
TEST READOUT: Plant response rating, Pigweed

compound="CC(C)(C)c1ccn(C2CCN(c3cccc(C(F)(F)F)c3)C2=S)n1 (stereo not drawn) [Compound 22]" test_readout="Plant response rating, Pigweed" meas_value=80
compound="COc1cc(N2CCC(n3ccc(C(C)(C)C)n3)C2=O)ccc1C (stereo not drawn) [Compound 42]" test_readout="Plant response rating, Pigweed" meas_value=80
compound="CCC(CC)c1ccn(C2CCN(c3cccc(OC(C)C)c3)C2=O)n1 (stereo not drawn) [Compound 84]" test_readout="Plant response rating, Pigweed" meas_value=60
compound="CCOc1ccn(C2CCN(c3cccc(C(F)(F)F)c3)C2=O)n1 (stereo not drawn) [Compound 61]" test_readout="Plant response rating, Pigweed" meas_value=0
compound="CC(C)Oc1ccn(C2CCN(c3cccc(C(F)(F)F)c3)C2=O)n1 (stereo not drawn) [Compound 59]" test_readout="Plant response rating, Pigweed" meas_value=0
compound="O=C1C(n2ccc(C3CCCCC3)n2)OCN1c1cccc(C(F)(F)F)c1 (stereo not drawn) [Compound 51]" test_readout="Plant response rating, Pigweed" meas_value=0

###

Below, each entry is listed with its recorded Plant response rating, Cocklebur.
System: cocklebur (Xanthium strumarium)
Assay: Test C postemergence
Format: in vivo
Details: Rate 250 g/ha, scale 0 to 100 (0 no effect, 100 complete control)
TEST READOUT: Plant response rating, Cocklebur

compound="COc1cc(N2CCC(n3ccc(C(C)(C)C)n3)C2=O)ccc1Br (centres unmarked) [Compound 141]" meas_value=70
compound="CCC(C)c1ccn(C2CCN(c3ccc(Br)c(OC)c3)C2=O)n1 (centres unmarked) [Compound 142]" meas_value=90
compound="COc1cc(N2CCC(n3ccc(C(C)(C)C)n3)C2=O)ccc1Cl (centres unmarked) [Compound 117]" meas_value=85
compound="CC(C)(C)c1ccn(C2SCN(c3cccc(OC(F)F)c3)C2=O)n1 (centres unmarked) [Compound 36]" meas_value=0
compound="CCC(CC)c1ccn(C2CCN(c3ccc(Br)c(OC)c3)C2=O)n1 (centres unmarked) [Compound 143]" meas_value=90

###

Test system: giant foxtail (Setaria faberii)
Assay: Test C preemergence
Assay type: in vivo
Details: preemergence; Rate 250 g/ha; scale 0 to 100, 0 no effect, 100 complete control
TEST READOUT: Plant response rating, Foxtail, Giant

molecule="CCC(CC)c1ccn(C2CCN(c3ccc(Br)c(OC)c3)C2=O)n1 (centres unmarked)" measurement_target="giant foxtail (Setaria faberii)" meas_value=100
molecule="CCC(C)c1ccn(C2OCN(c3cccc(OC(F)F)c3)C2=O)n1 (centres unmarked)" measurement_target="giant foxtail (Setaria faberii)" meas_value=100
molecule="CCC(CC)c1ccn(C2CCN(c3ccc(F)c(C(F)(F)F)c3)C2=O)n1 (centres unmarked)" measurement_target="giant foxtail (Setaria faberii)" meas_value=100
molecule="CCC(C)c1ccn(C2CCN(c3ccc(Br)c(OC)c3)C2=O)n1 (centres unmarked)" measurement_target="giant foxtail (Setaria faberii)" meas_value=100
molecule="COc1cc(N2CCC(n3ccc(C(C)(C)C)n3)C2=O)ccc1Br (centres unmarked)" measurement_target="giant foxtail (Setaria faberii)" meas_value=100
molecule="CCCC(C)c1ccn(C2CCN(c3cccc(OCC)c3)C2=O)n1 (centres unmarked)" measurement_target="giant foxtail (Setaria faberii)" meas_value=80
molecule="Cc1ccc(N2CCC(n3ccc(C(C)(C)C)n3)C2=O)cc1I (centres unmarked)" measurement_target="giant foxtail (Setaria faberii)" meas_value=0
molecule="CCC(C)Oc1cccc(N2CCC(n3ccc(C(C)(C)C)n3)C2=O)c1 (centres unmarked)" measurement_target="giant foxtail (Setaria faberii)" meas_value=100
molecule="CC(C)(C)c1ccn(C2CCN(c3cccc(I)c3)C2=O)n1 (centres unmarked)" measurement_target="giant foxtail (Setaria faberii)" meas_value=100
molecule="CC(C)(C)c1ccn(C2CCN(c3cccc([S+]([O-])C(F)(F)F)c3)C2=O)n1 (centres unmarked)" measurement_target="giant foxtail (Setaria faberii)" meas_value=100
molecule="Cc1ccc(N2CCC(n3ccc(C(C)(C)C)n3)C2=O)cc1OCCCl (centres unmarked)" measurement_target="giant foxtail (Setaria faberii)" meas_value=90

###

Test system: lambsquarters (Chenopodium album)
Experiment: Test C postemergence
Assay type: in vivo
Conditions: Rate 250 g/ha, scale 0 to 100 (0 no effect, 100 complete control)
Below, each entry is listed with its recorded Plant response rating, Lambsquarters.
TEST READOUT: Plant response rating, Lambsquarters

compound="Cc1ccc(N2CCC(n3ccc(C(C)(C)C)n3)C2=O)cc1OCCCl (stereo not drawn) [Compound 109]" test_readout="Plant response rating, Lambsquarters" meas_value=100
compound="COc1cc(N2CCC(n3ccc(C(C)C)n3)C2=O)ccc1Br (stereo not drawn) [Compound 140]" test_readout="Plant response rating, Lambsquarters" meas_value=90
compound="CCOc1cc(N2CCC(n3ccc(C(C)(C)C)n3)C2=O)ccc1C (stereo not drawn) [Compound 106]" test_readout="Plant response rating, Lambsquarters" meas_value=100
compound="Cc1ccc(N2CCC(n3ccc(C(C)(C)C)n3)C2=O)cc1I (stereo not drawn) [Compound 122]" test_readout="Plant response rating, Lambsquarters" meas_value=100
compound="COc1cc(N2CCC(n3ccc(C(C)C)n3)C2=O)ccc1Cl (stereo not drawn) [Compound 120]" test_readout="Plant response rating, Lambsquarters" meas_value=90
compound="CCC(CC)c1ccn(C2SCN(c3cccc(C(F)(F)F)c3)C2=O)n1 (stereo not drawn) [Compound 25]" test_readout="Plant response rating, Lambsquarters" meas_value=100

###

Tested on: kochia (Kochia scoparia)
Experiment: Test C preemergence
Type: in vivo
Conditions: preemergence; Rate 125 g/ha; scale 0 to 100, 0 no effect, 100 complete control
TEST READOUT: Plant response rating, Kochia

molecule="O=C1C(n2ccc(C3CCCCC3)n2)OCN1c1cccc(C(F)(F)F)c1 (stereo not drawn) [Compound 51]" test_readout="Plant response rating, Kochia" meas_value=50
molecule="O=C1C(n2ccc(C3CCC3)n2)SCN1c1cccc(OC(F)F)c1 (stereo not drawn) [Compound 45]" test_readout="Plant response rating, Kochia" meas_value=60
molecule="CC(C)(C)c1ccn(C2SCN(c3cccc(OC(F)F)c3)C2=O)n1 (stereo not drawn) [Compound 36]" test_readout="Plant response rating, Kochia" meas_value=100
molecule="O=C1C(n2ccc(C3CCCCC3)n2)SCN1c1cccc(C(F)(F)F)c1 (stereo not drawn) [Compound 52]" test_readout="Plant response rating, Kochia" meas_value=20
molecule="CC(C)(C)c1ccn(C2CCN(c3cccc(OC(F)(F)F)c3)C2=O)n1 (stereo not drawn) [Compound 49]" test_readout="Plant response rating, Kochia" meas_value=90
molecule="O=C1C(n2ccc(C3CC3)n2)CCN1c1cccc(C(F)(F)F)c1 (stereo not drawn) [Compound 8]" test_readout="Plant response rating, Kochia" meas_value=0

###

Tested on: crabgrass (Digitaria sanguinalis)
Test: Test B preemergence
Type: in vivo
Details: preemergence; Rate 125 g/ha; scale of 0 to 100 where 0 is no effect and 100 is complete control; 13 to 15 days
Below, each entry is listed with its recorded Plant response rating, Crabgrass.
TEST READOUT: Plant response rating, Crabgrass

compound="Cc1ccc(N2CCC(n3ccc(C(C)(C)C)n3)C2=O)cc1OCCI (stereo not shown) [Compound 108]" meas_value=0
compound="Cc1cccc(N2CCC(n3ccc(C(C)(C)C)n3)C2=O)c1 (stereo not shown) [Compound 112]" meas_value=100
compound="CC1(c2ccn(C3SCN(c4cccc(OC(F)(F)F)c4)C3=O)n2)CC1 (stereo not shown) [Compound 63]" meas_value=0
compound="CCC(C)c1ccn(C2OCN(c3cccc(OC(F)F)c3)C2=O)n1 (stereo not shown) [Compound 134]" meas_value=100
compound="COc1cccc(N2CCC(n3ccc(C(C)(C)C)n3)C2=O)c1 (stereo not shown) [Compound 87]" meas_value=100
compound="CCOc1cccc(N2CCC(n3ccc(C(C)(C)C)n3)C2=O)c1 (stereo not shown) [Compound 130]" meas_value=100
compound="CCCC(C)c1ccn(C2CCN(c3cccc(C(F)(F)F)c3)C2=O)n1 (stereo not shown) [Compound 100]" meas_value=0
compound="CC(C)(C)c1ccn(C2CCN(c3cc(Cl)cc(Cl)c3)C2=O)n1 (stereo not shown) [Compound 55]" meas_value=0
compound="CC(C)c1ccn(C2OCN(c3cccc(OC(F)(F)F)c3)C2=O)n1 (stereo not shown) [Compound 65]" meas_value=20
compound="O=C1C(n2ccc(C3CCCCC3)n2)OCN1c1cccc(C(F)(F)F)c1 (stereo not shown) [Compound 51]" meas_value=100
compound="CC(C)Oc1cccc(N2CCC(n3ccc(C(C)(C)C)n3)C2=O)c1 (stereo not shown) [Compound 70]" meas_value=90
compound="CCCC(C)c1ccn(C2CCN(c3ccc(Cl)c(OC)c3)C2=O)n1 (stereo not shown) [Compound 121]" meas_value=10
compound="CCC(C)c1ccn(C2CCN(c3ccc(C)c(OC)c3)C2=O)n1 (stereo not shown) [Compound 80]" meas_value=100
compound="Cc1ccc(N2CCC(n3ccc(C(C)(C)C)n3)C2=O)cc1OC(C)C (stereo not shown) [Compound 110]" meas_value=100
compound="CCC(C)Oc1ccn(C2CCN(c3cccc(C(F)(F)F)c3)C2=O)n1 (stereo not shown) [Compound 58]" meas_value=0
compound="CC(C)Oc1cccc(N2CCC(n3ccc(C(C)C)n3)C2=O)c1 (stereo not shown) [Compound 82]" meas_value=100
compound="CC(C)(C)c1ccn(C2CCN(c3ccc(F)c(Cl)c3)C2=O)n1 (stereo not shown) [Compound 46]" meas_value=0
compound="CCC(C)c1ccn(C2CCN(c3ccc(Br)c(OC)c3)C2=O)n1 (stereo not shown) [Compound 142]" meas_value=100
compound="CCC(C)c1ccn(C2CCN(c3ccc(Cl)c(OC)c3)C2=O)n1 (stereo not shown) [Compound 119]" meas_value=100
